Test: Pharmacokinetic evaluation following intravenous and oral administration in rats
Type: in vivo
Details: male, Sprague-Dawley, plasma; rat; non-compartmental analysis; read-out: In vivo Clearance (converted)
Method: Male Sprague-Dawley rats are acclimatized for at least 24 hours prior to experiment initiation. During acclimation period, all animals receive food and water ad libitum. […] The determined body weight is used to calculate the dose volume for each animal. […] In instances where the formulation concentrations were less than 0.5 mg/mL, the dosing volume is about 2 mL/kg. […] The resulting plasma samples are then analyzed by liquid chromatography-tandem mass spectrometry. […]
quantity-kind: clearance (mL/min/kg)
Give bare numbers, in mL/min/kg.

compound	clearance, mL/min/kg
Cc1cc(/C=C/C(F)(F)F)ccc1C(=O)Nc1ccc2sc(CO)nc2c1 [Compound 225]	1.52

Please state, for each entry, its recorded clearance.
1. Cc1cc(/C=C/C(F)(F)F)ccc1C(=O)Nc1ccc2cc(CO)cnc2c1 [Compound 228]
2. Cc1cc(/C=C/C(F)(F)F)ccc1C(=O)Nc1cccc2ccc(O)cc12 [Compound 302]

# output
1: 37.4; 2: 67.3

Please state, for each entry, its recorded clearance.
1. CC(C)(C)C#Cc1ccc(C(=O)Nc2cnc3ccccc3c2)c(Cl)c1 [Compound 164]
2. Cc1cc(C#CC(C)(C)C)ccc1C(=O)Nc1ccc2c(c1)OC[C@@H](CO)N2 [Compound 184]
3. Cc1nc2cc(NC(=O)c3ccc(C#CC(C)(C)C)cc3C)ccc2s1 [Compound 162]
4. Cc1cc(C#CC(C)(C)C)ccc1C(=O)Nc1cccc2cnccc12 [Compound 163]
5. CC(C)(C)C#Cc1ccc(C(=O)Nc2ccc3c(c2)OC[C@H](CO)N3)c(F)c1 [Compound 172]

# output
1: 33.5; 2: 35.2; 3: 44.3; 4: 110; 5: 41.2

###

assay: Pharmacokinetic evaluation following intravenous and oral administration in rats; format: in vivo; details: male, Sprague-Dawley, plasma; rat; AUCinf (PO)/AUCinf (IV), dose normalized; PO 5 mg/kg; read-out: Oral Bioavailability F (%)
quantity-kind: bioavailability

Some solved cases for reference:
compound	observed-measurement
O=C(Nc1cccc2cnccc12)c1ccc(/C=C/C(F)(F)F)cc1F	22%
O=C(Nc1ccc2c(c1)OCC(CO)N2)c1ccc(/C=C/C(F)(F)F)cc1Cl (stereo not drawn)	83%
CC(C)(C)C#Cc1ccc(C(=O)Nc2ccc3c(c2)OC[C@H](CO)N3)c(F)c1	76%
Cc1cc(C#CC(C)(C)C)ccc1C(=O)Nc1cnc2ccccc2c1	1%

Please state, for each entry, its recorded bioavailability.
1. Cc1cc(/C=C/C(F)(F)F)ccc1C(=O)Nc1ccc2cccnc2c1
2. CC(C)(C)C#Cc1ccc(C(=O)Nc2ccc3c(c2)OCC(CO)N3)c(Cl)c1 (stereo not drawn)
3. Cc1cc(/C=C/C(F)(F)F)ccc1C(=O)Nc1ccc2c(c1)OCC(CO)N2 (stereo not drawn)
4. CC(C)(C)C#Cc1ccc(C(=O)Nc2cnc3ccccc3c2)c(Cl)c1
5. Cc1cc(/C=C/C(F)(F)F)ccc1C(=O)Nc1cnc2cccnc2c1
6. Cc1cc(/C=C/C(F)(F)F)ccc1C(=O)Nc1cnc2sc(CO)nc2c1
7. Cc1cc(/C=C/C(F)(F)F)ccc1C(=O)Nc1cnc2c(c1)OCC(CO)N2 (stereo not drawn)

# output
> 100%
42%
> 100%
1%
59%
> 100%
54%

Please state, for each entry, its recorded bioavailability.
1. Cc1cc(/C=C/C(F)(F)F)ccc1C(=O)Nc1ccc2cc(C(O)CO)cnc2c1 (stereo not drawn)
2. Cc1cc(/C=C/C(F)(F)F)ccc1C(=O)Nc1ccc2cc(COCCO)cnc2c1

# output
1: 71%; 2: > 100%

Please state, for each entry, its recorded bioavailability.
1. CC(C)(C)C#Cc1ccc(C(=O)Nc2ccc3c(c2)OCC(CO)N3)c(F)c1 (stereo not drawn)
2. Cc1cc(/C=C/C(F)(F)F)ccc1C(=O)Nc1cnc2scnc2c1

# output
1. 36%
2. 45%

Please state, for each entry, its recorded bioavailability.
1. Cc1nc2cc(NC(=O)c3ccc(/C=C/C(F)(F)F)cc3C)cnc2s1
2. O=C(Nc1ccc2c(c1)OCC(CO)N2)c1ccc(C#CC2CC2)cc1F (stereo not drawn)
3. Cc1cc(/C=C/C(F)(F)F)ccc1C(=O)Nc1cnc2cc(CO)cnc2c1
4. Cc1cc(C#CC2CC2)ccc1C(=O)Nc1ccc2c(c1)OCC(CO)N2 (stereo not drawn)
5. Cc1nc2cc(NC(=O)c3ccc(/C=C/C(F)(F)F)cc3C)ccc2s1
6. O=C(Nc1ccc2c(c1)OCC(CO)N2)c1c(F)cc(C#CC2CC2)cc1F (stereo not drawn)

# output
1. 11%
2. 66%
3. 47%
4. 67%
5. 8%
6. 68%

Please state, for each entry, its recorded bioavailability.
1. Cc1cc(/C=C/C(F)(F)F)ccc1C(=O)Nc1cnc2ccccc2c1
2. Cc1cc(C#CC(C)(C)C)ccc1C(=O)Nc1cccc2cnccc12

# output
1: 43%; 2: 53%

Please state, for each entry, its recorded bioavailability.
1. O=C(Nc1ccc2c(c1)OCC(CO)N2)c1ccc(C#CC2CCCC2)cc1F (stereo not drawn)
2. Cc1cc(/C=C/C(F)(F)F)ccc1C(=O)Nc1ccc2cc(C(C)(C)O)cnc2c1
3. Cc1cc(C#CC(C)(C)C)ccc1C(=O)Nc1ccc2c(c1)OC[C@@H](CO)N2
4. O=C(Nc1ccc2c(c1)OCCN2)c1ccc(/C=C/C(F)(F)F)cc1F

# output
["35%", "> 100%", "17%", "63%"]

###

assay: Half-life in human liver microsomes (HLM); type: in vitro ADME; conditions: pH 7.4, 1 μM compound, 0.78 mg/mL HLM, 37° C.
Doc: threshold 1 h (exclusive). Items with half-life at 1 μM beneath it return Fulfilled; others return Not fulfilled.

molecule	classification
Cc1cc(/C=C/C(F)(F)F)ccc1C(=O)Nc1cnc2scnc2c1	Not fulfilled
Cc1cc(/C=C/C(F)(F)F)ccc1C(=O)Nc1ccc2cc(C(C)O)cnc2c1 (centres unmarked)	Fulfilled
Cc1cc(/C=C/C(F)(F)F)ccc1C(=O)Nc1ccc2cc(C(O)CO)cnc2c1 (centres unmarked)	Not fulfilled
Cc1cc(/C=C/C(F)(F)F)ccc1C(=O)Nc1cccc2ccc(O)cc12	Fulfilled
Cc1cc(/C=C/C(F)(F)F)ccc1C(=O)Nc1cnc2cccnc2c1	Not fulfilled

# input Consider Cc1cc(/C=C/C(F)(F)F)ccc1C(=O)Nc1cccc2c1CC(O)CC2 (racemic) . Does its half-life at 1 μM lie strictly below 1 h?
# output Not fulfilled

# input Consider `Cc1cc(/C=C/C(F)(F)F)ccc1C(=O)Nc1ccc2cc(C(C)(C)O)cnc2c1` . Does its half-life at 1 μM lie strictly below 1 h?
# output Fulfilled

# input Consider `Cc1cc(/C=C/C(F)(F)F)ccc1C(=O)Nc1cnc2cc(CO)cnc2c1` . Does its half-life at 1 μM lie strictly below 1 h?
# output Fulfilled

###

Experiment: Half-life in human liver microsomes (HLM)
Assay type: in vitro ADME
Conditions: pH 7.4, 1 μM compound, 0.78 mg/mL HLM, 37° C.
Description: Test compounds (1 μM) are incubated with 3.3 mM MgCl2 and 0.78 mg/mL HLM (HL101) in 100 mM potassium phosphate buffer (pH 7.4) at 37° C. on the 96-deep well plate. The reaction mixture is split into two groups, a non-P450 and a P450 group. NADPH is only added to the reaction mixture of the P450 group. […] The compound concentration in supernatant is measured by LC/MS/MS system. […]
quantity-kind: half-life at 1 μM (min)
Numbers only, in min.

Some solved cases for reference:
compound	units-text	observed-measurement
Cc1nc2cc(NC(=O)c3ccc(/C=C/C(F)(F)F)cc3C)cnc2s1 [Compound 412]	min	48.6
Cc1cc(/C=C/C(F)(F)F)ccc1C(=O)Nc1cnc2sc(CO)nc2c1 [Compound 413]	min	193

# input Supply measured half-life at 1 μM of Cc1cc(/C=C/C(F)(F)F)ccc1C(=O)Nc1ccc2cc(COCCO)cnc2c1 [Compound 305] in your reply.
# output 16.8

###

Provide the reported IC50 of each item.
molecular target: UniProt Q8NER1; assay: Acid stimulation assay (FDSS 6000); conditions: final assay buffer pH5.8, 15 min pre-incubation
Sequence (Q8NER1 whole entry, species assumed): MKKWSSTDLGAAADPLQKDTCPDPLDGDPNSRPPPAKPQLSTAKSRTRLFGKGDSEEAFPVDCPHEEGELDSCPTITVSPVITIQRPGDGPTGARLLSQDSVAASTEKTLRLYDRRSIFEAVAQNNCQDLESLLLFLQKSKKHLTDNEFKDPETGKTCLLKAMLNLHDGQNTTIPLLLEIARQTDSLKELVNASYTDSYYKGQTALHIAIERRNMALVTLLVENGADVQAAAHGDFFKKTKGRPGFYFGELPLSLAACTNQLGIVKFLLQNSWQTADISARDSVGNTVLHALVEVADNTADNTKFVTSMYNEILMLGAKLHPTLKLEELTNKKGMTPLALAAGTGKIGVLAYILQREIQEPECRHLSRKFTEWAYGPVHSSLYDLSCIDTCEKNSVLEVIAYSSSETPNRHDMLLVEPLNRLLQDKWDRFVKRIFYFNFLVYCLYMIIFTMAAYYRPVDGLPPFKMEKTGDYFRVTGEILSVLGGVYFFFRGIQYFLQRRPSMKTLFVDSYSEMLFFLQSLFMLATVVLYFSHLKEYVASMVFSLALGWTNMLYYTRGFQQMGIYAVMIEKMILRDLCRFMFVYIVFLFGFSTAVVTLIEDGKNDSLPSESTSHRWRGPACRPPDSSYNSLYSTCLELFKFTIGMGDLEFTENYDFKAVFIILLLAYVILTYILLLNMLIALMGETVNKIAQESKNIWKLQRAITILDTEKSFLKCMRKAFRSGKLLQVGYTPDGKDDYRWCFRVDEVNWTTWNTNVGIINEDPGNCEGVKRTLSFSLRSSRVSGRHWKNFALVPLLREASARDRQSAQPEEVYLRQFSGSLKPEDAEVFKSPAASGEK
Numbers only, in nM.

Some solved cases for reference:
compound	IC50 / nM
Cc1cc(/C=C/C(F)(F)F)ccc1C(=O)Nc1ccc2c(c1)N(S(C)(=O)=O)CC2	94
Cc1cc(/C=C/C(F)(F)F)ccc1C(=O)Nc1ccc2c(c1)C(O)CCC2 (centres unmarked)	118
Cc1cc(/C=C/C(F)(F)F)ccc1C(=O)Nc1ccc2cc(C(C)(C)O)cnc2c1	37

Please state, for each entry, its recorded IC50.
1. Cc1cc(/C=C/C(F)(F)F)ccc1C(=O)Nc1ccc2cc(COCCO)cnc2c1
2. Cc1cc(/C=C/C(F)(F)F)ccc1C(=O)Nc1cccc2c1CC(O)CC2 (racemic)
3. Cc1nc2cc(NC(=O)c3ccc(/C=C/C(F)(F)F)cc3C)cnc2s1
4. Cc1cc(/C=C/C(F)(F)F)ccc1C(=O)Nc1ccc2nccnc2c1
5. Cc1cc(/C=C/C(F)(F)F)ccc1C(=O)Nc1cnc2scnc2c1
6. Cc1cc(/C=C/C(F)(F)F)ccc1C(=O)Nc1ccc2cc(C(O)CO)cnc2c1 (centres unmarked)

# output
1: 12; 2: 2; 3: 20; 4: 147; 5: 8; 6: 11

Please state, for each entry, its recorded IC50.
1. Cc1cc(/C=C/C(F)(F)F)ccc1C(=O)Nc1ccc2cc(C(C)O)cnc2c1 (centres unmarked)
2. Cc1cc(/C=C/C(F)(F)F)ccc1C(=O)Nc1cccc2c1C[C@H](O)CC2 (single isomer, unassigned)
3. Cc1cc(/C=C/C(F)(F)F)ccc1C(=O)Nc1ccc2sc(C(C)O)nc2c1 (centres unmarked)
4. Cc1cc(/C=C/C(F)(F)F)ccc1C(=O)Nc1cccc2c1C[C@@H](O)CC2 (single isomer, unassigned)
5. Cc1cc(/C=C/C(F)(F)F)ccc1C(=O)Nc1cnc2c(c1)CCCC2
6. Cc1cc(/C=C/C(F)(F)F)ccc1C(=O)Nc1ccc2oc(CO)nc2c1
7. CCC(=O)N1CCc2ccc(NC(=O)c3ccc(/C=C/C(F)(F)F)cc3C)cc21

# output
[4, 23, 147, 14, 103, 28, 323]

# input Supply measured IC50 of `CC(=O)n1ccc2cc(NC(=O)c3ccc(/C=C/C(F)(F)F)cc3C)cnc21` in your reply.
# output 61
